Give melting point for every item shown.
Where a name gives a salt, the structure may show the parent alone.

Could you share which melting point value was measured for `COC(=O)c1cc(C(=O)NCC(C)C)c2cc(Cc3ccc(F)cc3)cnc2c1O` ?
178 to 179 °C

Same read-out for `O=C(O)c1cc(C(=O)O)c2cc(Cc3ccc(F)cc3)cnc2c1O` ?
279 to 282 °C

Would you kindly repeat that for `COC(=O)c1nc(C#CCO)c2cc(Cc3ccc(F)cc3)cnc2c1O` ?
205 to 208 °C

Also check `CCCC(=O)c1cc(C(=O)O)c2cc(Cc3ccc(F)cc3)cnc2c1O`
232 to 234 °C

Also `COC(=O)c1cc(C(=O)NNC(=O)c2ccccn2)c2cc(Cc3ccc(F)cc3)cnc2c1O` , if possible.
164 to 166 °C

Then this compound: `COC(=O)c1cc(N2CCOC2=O)c2cc(Cc3ccc(F)cc3)cnc2c1O`
152 to 153 °C

// repeat for COC(=O)c1cc(NC(=O)c2ccnc(C)c2)c2cc(Cc3ccc(F)cc3)cnc2c1O (as salt: salt) and report
229 to 230 °C

Same again, this time with `COC(=O)c1cc(C(=O)NC2CCCC2)c2cc(Cc3ccc(F)cc3)cnc2c1O`
221 to 222 °C

Query `COC(=O)c1cc(N2CCOCC2)c2cc(Cc3ccc(F)cc3)cnc2c1O` next
119 to 120 °C

###

Provide the recorded IC50 for the entries that follow.
- study target: HIV integrase (Human immunodeficiency virus type 1 group M subtype B, UniProt P04585)
- test description: integrase inhibition assay (microtiter plate, substrate DNA / target DNA)
- Assay type: biochemical
- reported conditions: integrase 30 pmol, incubated at 30° C. for 1 hour, OD at 405 nm; concentration at percent inhibition 50%; read-out: MIA, IC50 (ug/ml) (converted)
- Description: The inhibitory activities against integrase of the presnt compounds were determined by the assay described below. (1) Preparation of DNA Solutions […] The microtiter plates were incubated at 30° C. for 1 hour. […] The optical density (OD) at 405 nm of each well was measured and the percent inhibition was determined by the following expression. […]
Please respond with the number in nM and leave the unit unwritten.

Item COC(=O)c1ncc2cc(Cc3ccc(F)cc3)cnc2c1O [Compound A-2] has what recorded IC50?
416

Also, COC(=O)c1cc(NC(C)C)c2cc(Cc3ccc(F)cc3)cnc2c1O [Compound I-14] please.
1190

Same question, COC(=O)c1cc(C(=O)NCC(=O)N(C)C)c2cc(Cc3ccc(F)cc3)cnc2c1O [Compound I-64] this time
979

Now the compound CNC(=O)c1nc(C#CCO)c2cc(Cc3ccc(F)cc3)cnc2c1O [Compound A-98]
520

Now the compound COC(=O)c1nc(NC(=O)C(=O)N(C)C)c2cc(Cc3ccc(F)cc3)cnc2c1O [Compound A-115]
422

Would you kindly repeat that for COCCC(=O)Nc1cc(C(=O)OC)c(O)c2ncc(Cc3ccc(F)cc3)cc12 [Compound I-182] ?
461

// next record COC(=O)c1nc(NS(=O)(=O)N(C)C)c2cc(Cc3ccc(F)cc3)cnc2c1O [Compound A-26]
345

Likewise for COC(=O)c1cc(C(=O)O)c2cc(Cc3ccc(F)cc3)cnc2c1O [Compound I-3] ?
394

Next record, please: COC(=O)c1cc(N(C)C)c2cc(Cc3ccc(F)cc3)cnc2c1O [Compound I-16]
451

Same thing, different compound: O=C(O)c1cc(C(=O)O)c2cc(Cc3ccc(F)cc3)cnc2c1O [Compound I-4]
352

Then what about the compound COC(=O)c1nc(C(=O)OC)c2cc(Cc3ccc(F)cc3)cnc2c1O [Compound A-15] ?
783

Next compound: COC(=O)c1nc(NS(C)(=O)=O)c2cc(Cc3ccc(F)cc3)cnc2c1O [Compound A-9]
222

Similarly, CCOC(=O)Nc1nc(C(=O)OC)c(O)c2ncc(Cc3ccc(F)cc3)cc12 [Compound A-42] ?
576

Proceed to COC(=O)c1cc(N)c2cc(Cc3ccc(F)cc3)cnc2c1O [Compound I-8]
398

// query: COC(=O)c1nc(N2CCCCS2(=O)=O)c2cc(Cc3ccc(F)cc3)cnc2c1O [Compound A-22]
427

Next: COCCNC(=O)c1cc(C(=O)OC)c(O)c2ncc(Cc3ccc(F)cc3)cc12 [Compound I-6]
412

Do the same for COC(=O)c1cc(C(=O)NCCCO)c2cc(Cc3ccc(F)cc3)cnc2c1O [Compound I-58] please
388

Subsequent entry: CC(=O)N1CCC(OC(=O)c2ncc3cc(Cc4ccc(F)cc4)cnc3c2O)CC1 [Compound A-82]
260

###

Provide the recorded melting point for the entries that follow.

Could you share which melting point value was measured for `COCCNC(=O)c1nc(NS(C)(=O)=O)c2cc(Cc3ccc(F)cc3)cnc2c1O` ?
241 to 242 °C

Try this compound next: `CNC(=O)c1cc(C(=O)O)c2cc(Cc3ccc(F)cc3)cnc2c1O`
203 to 205 °C

Do the same for `COC(=O)c1nc(C(=O)NS(=O)(=O)c2ccccc2)c2cc(Cc3ccc(F)cc3)cnc2c1O` please
228 to 229 °C

// repeat for `COC(=O)c1cc(C(=O)N2CCC(C(N)=O)CC2)c2cc(Cc3ccc(F)cc3)cnc2c1O` and report
235 to 238 °C

Follow-up item: `COC(=O)c1nc(C(=O)OC)c2cc(Cc3ccc(F)cc3)cnc2c1O`
191 to 194 °C

Next record, please: `COC(=O)c1nc(NS(C)(=O)=O)c2cc(Cc3ccc(F)cc3)cnc2c1O`
205 to 210 °C

Again, but for `COC(=O)c1cc(C(=O)N2CCC(O)CC2)c2cc(Cc3ccc(F)cc3)cnc2c1O`
196 to 197 °C

Quick one: `COC(=O)c1nc(NC(=O)c2ccco2)c2cc(Cc3ccc(F)cc3)cnc2c1O`
200 to 202 °C

// query: `COC(=O)c1cc(NS(C)(=O)=O)c2cc(Cc3ccc(F)cc3)cnc2c1O`
189.5 to 190.5 °C

Param item: `COC(=O)c1cc(C(=O)N2CCCOCC2)c2cc(Cc3ccc(F)cc3)cnc2c1O`
136 to 137 °C

Next: `COC(=O)c1cc(Cc2cc(C(=O)OC)c(O)c3ncc(Cc4ccc(F)cc4)cc23)c2cc(Cc3ccc(F)cc3)cnc2c1O`
244 to 245 °C

Query `COC(=O)c1cc(N2CCCCC2)c2cc(Cc3ccc(F)cc3)cnc2c1O` next
133 to 134 °C

Thanks! And `COC(=O)c1cc(C(=O)NNC(=O)c2cccnc2)c2cc(Cc3ccc(F)cc3)cnc2c1O` ?
184 to 185 °C

Further, for `CNC(=O)c1nc(C#CCO)c2cc(Cc3ccc(F)cc3)cnc2c1O` ?
185 °C

Proceed to `CCOC(=O)Nc1cc(C(=O)OC)c(O)c2ncc(Cc3ccc(F)cc3)cc12`
205 to 206 °C

Entry to check: `COC(=O)c1cc(NC(=O)c2ccccc2Cl)c2cc(Cc3ccc(F)cc3)cnc2c1O`
230 to 232 °C

Next compound up: `CCOC(=O)c1cc(C(=O)O)c2cc(Cc3ccc(F)cc3)cnc2c1O`
238 to 239 °C

Next entry: `COC(=O)C(=O)Nc1cc(C(=O)OC)c(O)c2ncc(Cc3ccc(F)cc3)cc12`
168 to 170 °C

Try the compound `CCNC(=O)Nc1cc(C(=O)OC)c(O)c2ncc(Cc3ccc(F)cc3)cc12`
280 to 282 °C

###

outcome measure: melting point

Item under review: `CONC(=O)c1cc(C(=O)OC)c(O)c2ncc(Cc3ccc(F)cc3)cc12` . Reported melting point?
200 to 201 °C

What do you have for `COC(=O)c1cc(C(=O)NNC(=O)c2ccccc2)c2cc(Cc3ccc(F)cc3)cnc2c1O` ?
227 to 229 °C

Repeat for the following compound: `COCC(=O)Nc1cc(C(=O)OC)c(O)c2ncc(Cc3ccc(F)cc3)cc12`
154 to 155 °C

How about `CCC(=O)c1cc(C(=O)O)c2cc(Cc3ccc(F)cc3)cnc2c1O` ?
235 to 237 °C

Would you kindly repeat that for `COC(=O)c1cc(C(=O)NCCO)c2cc(Cc3ccc(F)cc3)cnc2c1O` ?
207 to 208 °C

Can you handle `CCCCC(=O)c1cc(C(=O)O)c2cc(Cc3ccc(F)cc3)cnc2c1O` next?
227 to 229 °C

`COC(=O)C=Cc1cc(C(=O)OC)c(O)c2ncc(Cc3ccc(F)cc3)cc12` , same question.
139 to 141 °C

Check `COC(=O)c1cc(C(=O)NCCNC(C)=O)c2cc(Cc3ccc(F)cc3)cnc2c1O` too.
251 to 253 °C

Proceed to `COCCNC(=O)c1cc(C(=O)OC)c(O)c2ncc(Cc3ccc(F)cc3)cc12`
152 to 154 °C

Same thing, different compound: `COC(=O)c1cc(CC(N)=O)c2cc(Cc3ccc(F)cc3)cnc2c1O`
209 to 211 °C

Now this one: `COC(=O)c1cc(C(=O)NCCC2CCOCC2)c2cc(Cc3ccc(F)cc3)cnc2c1O`
198 to 199 °C

Another compound: `COC(=O)c1cc(NCC(C)C)c2cc(Cc3ccc(F)cc3)cnc2c1O`
249 to 251 °C

Param item: `COC(=O)c1cc(C(=O)NNC(C)=O)c2cc(Cc3ccc(F)cc3)cnc2c1O`
208 to 209 °C

How about this compound: `COCCC(=O)Nc1cc(C(=O)OC)c(O)c2ncc(Cc3ccc(F)cc3)cc12`
190 to 192 °C

Check `CC(C)OC(=O)c1cc(C(=O)O)c2cc(Cc3ccc(F)cc3)cnc2c1O` too.
249 to 251 °C (dec.)

Now try COCC(C)OC(=O)c1ncc2cc(Cc3ccc(F)cc3)cnc2c1O (stereo not drawn) .
130 to 131 °C

And what about the compound `COC(=O)c1cc(C(=O)NCC(=O)O)c2cc(Cc3ccc(F)cc3)cnc2c1O` ?
246 to 247 °C

Okay, and `CCOC(=O)Nc1nc(C(=O)OC)c(O)c2ncc(Cc3ccc(F)cc3)cc12` ?
247 to 249 °C

And then `COC(=O)c1cc(-c2ccccc2C(=O)O)c2cc(Cc3ccc(F)cc3)cnc2c1O` , what is it?
250 to 252 °C

Another compound to look at: `COC(=O)c1nc(N2CCOC2=O)c2cc(Cc3ccc(F)cc3)cnc2c1O`
256 °C (dec.)

// repeat for `COC(=O)c1cc(C(=O)NCCN(C)C)c2cc(Cc3ccc(F)cc3)cnc2c1O` and report
115 to 116 °C

Would you mind doing `CN(C)NC(=O)c1nc(C#CC2=CCCC2)c2cc(Cc3ccc(F)cc3)cnc2c1O` as well?
206 to 207 °C

Same for `COC(=O)c1cc(CCC(=O)O)c2cc(Cc3ccc(F)cc3)cnc2c1O`
254 to 256 °C

Please answer likewise for `COC(=O)c1cc(C(=O)N2COCC2(C)C)c2cc(Cc3ccc(F)cc3)cnc2c1O`
149 to 150 °C

Now the compound `CCN(C=O)c1cc(C(=O)OC)c(O)c2ncc(Cc3ccc(F)cc3)cc12`
90 to 91 °C

Try `COCC(=O)NNC(=O)c1cc(C(=O)OC)c(O)c2ncc(Cc3ccc(F)cc3)cc12` next.
181 to 182 °C

What do you get for `COC(=O)c1cc(-c2ccccc2C=O)c2cc(Cc3ccc(F)cc3)cnc2c1O` ?
73 to 75 °C

Another compound to check: `COC(=O)c1cc(NC(=O)C(F)(F)F)c2cc(Cc3ccc(F)cc3)cnc2c1O`
191 to 192 °C

Follow-up item: `CN=C(Nc1cc(C(=O)OC)c(O)c2ncc(Cc3ccc(F)cc3)cc12)SC`
198.5 to 199.5 °C

How about this compound: `COC(=O)c1nc(NC(C)=O)c2cc(Cc3ccc(F)cc3)cnc2c1O`
263 to 267 °C

Also, `COC(=O)c1cc(N2CCNC2=O)c2cc(Cc3ccc(F)cc3)cnc2c1O` please.
248 to 250 °C

Also, `COCCNC(=O)c1nc(C#CCNS(C)(=O)=O)c2cc(Cc3ccc(F)cc3)cnc2c1O` please.
198 °C

Okay, and `COCCNC(=O)c1nc(C(=O)OC)c(O)c2ncc(Cc3ccc(F)cc3)cc12` ?
145 to 146 °C

And what about the compound `COC(=O)c1cc(C(=O)NNCC(=O)N(C)C)c2cc(Cc3ccc(F)cc3)cnc2c1O` ?
170 to 172 °C

Next record, please: `CNNC(=O)c1cc(C(=O)OC)c(O)c2ncc(Cc3ccc(F)cc3)cc12`
188 to 189 °C

// same read-out, input: `COC(=O)c1cc(C(=O)NC(C)(C)CO)c2cc(Cc3ccc(F)cc3)cnc2c1O`
204 to 205 °C

Try this compound too: `COC(=O)c1cc(C(=O)NN(C)C)c2cc(Cc3ccc(F)cc3)cnc2c1O`
198 to 199 °C

Okay, and `COC(=O)c1cc(C(=O)N2CCCC(=O)C2)c2cc(Cc3ccc(F)cc3)cnc2c1O` ?
228 to 229 °C

Could you do the same for `COC(=O)c1cc(C(=O)Nc2ccncn2)c2cc(Cc3ccc(F)cc3)cnc2c1O` , please?
241 to 242 °C
